Molecular target: Serine/threonine-protein kinase B-raf (Homo sapiens, UniProt P15056)
Sequence (P15056 whole entry): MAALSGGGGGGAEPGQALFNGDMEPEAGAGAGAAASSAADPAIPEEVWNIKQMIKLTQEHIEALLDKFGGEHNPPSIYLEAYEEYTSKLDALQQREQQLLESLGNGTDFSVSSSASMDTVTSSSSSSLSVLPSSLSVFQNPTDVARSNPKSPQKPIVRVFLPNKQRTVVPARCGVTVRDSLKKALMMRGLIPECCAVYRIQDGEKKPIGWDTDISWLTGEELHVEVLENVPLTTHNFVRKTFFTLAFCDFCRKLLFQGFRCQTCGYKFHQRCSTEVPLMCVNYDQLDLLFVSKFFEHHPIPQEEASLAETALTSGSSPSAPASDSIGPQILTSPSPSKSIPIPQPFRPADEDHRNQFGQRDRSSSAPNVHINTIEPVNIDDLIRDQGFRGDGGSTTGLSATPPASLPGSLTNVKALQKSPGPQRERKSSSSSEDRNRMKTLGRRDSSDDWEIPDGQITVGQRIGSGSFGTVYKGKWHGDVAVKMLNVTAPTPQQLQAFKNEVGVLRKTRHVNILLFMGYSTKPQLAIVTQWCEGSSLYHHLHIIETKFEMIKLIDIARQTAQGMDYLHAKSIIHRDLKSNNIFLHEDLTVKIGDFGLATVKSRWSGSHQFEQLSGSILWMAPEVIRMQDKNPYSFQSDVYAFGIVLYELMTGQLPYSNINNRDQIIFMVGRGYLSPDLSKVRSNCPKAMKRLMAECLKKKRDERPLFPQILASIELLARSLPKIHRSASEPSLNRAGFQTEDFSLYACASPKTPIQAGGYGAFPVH
pIC50: −log10 of the molar value.
measured endpoint: pIC50

# example entries with known answers
compound | assay system | quantitative readout
O=S(=O)(Nc1cc(Sc2ncn[nH]2)c(O)c2ccccc12)c1c(F)c(F)c(F)c(F)c1F | Serine/threonine-protein kinase B-raf (Homo sapiens, UniProt P15056) | 6.23
CCCCCCCCCCS(=O)(=O)Nc1cc(Sc2nnc[nH]2)c(O)c2ccccc12 | Serine/threonine-protein kinase B-raf (Homo sapiens, UniProt P15056) | 5.68
O=S(=O)(Nc1cc(Sc2ccccn2)c(O)c2ccccc12)c1cccs1 | Serine/threonine-protein kinase B-raf (Homo sapiens, UniProt P15056) | 6.46

P. O=C(/C=C/S(=O)(=O)c1ccc(Cl)cc1)c1ccc(F)cc1
Q. Cc1cc(C)c2c(=O)n(C(=O)c3cccs3)sc2n1
Exercise: Endpoint returns the identifier whose pIC50 is numerically larger, either P or Q . Label of pick, please.
Solution: Q
